TESTED_ON: hCB1R (Homo sapiens, UniProt P21554)
Construct: expressed in transfected cells; membranes
Sequence (P21554 whole entry): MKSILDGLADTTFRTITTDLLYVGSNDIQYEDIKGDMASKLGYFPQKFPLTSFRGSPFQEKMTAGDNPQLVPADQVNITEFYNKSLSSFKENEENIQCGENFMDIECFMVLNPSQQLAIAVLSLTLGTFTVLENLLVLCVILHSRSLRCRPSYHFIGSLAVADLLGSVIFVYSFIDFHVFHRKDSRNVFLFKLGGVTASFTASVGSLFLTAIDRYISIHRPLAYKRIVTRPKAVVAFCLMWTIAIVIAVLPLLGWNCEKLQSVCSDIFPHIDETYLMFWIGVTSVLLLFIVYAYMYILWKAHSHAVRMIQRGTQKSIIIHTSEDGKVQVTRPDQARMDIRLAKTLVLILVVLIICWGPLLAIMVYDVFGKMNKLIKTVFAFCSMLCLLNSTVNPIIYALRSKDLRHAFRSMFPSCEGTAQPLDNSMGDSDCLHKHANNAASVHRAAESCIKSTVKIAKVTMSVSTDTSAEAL
METHOD_DESCRIPTION: cell-based
APPLIED_CONDITIONS: CHO; read-out: hCB1R Emax, recruitment of βarrestin2
QUANTITY_MEASURED: Emax (%)
Number only, in %; omit the unit.

C=C(C)[C@@H]1CCC(C)=C[C@H]1c1c(O)cc(CCC)cc1O: 0.96

Query :: Provide measured Emax value, entry: "CCCCCc1cc(O)c(C/C=C(\C)CCC=C(C)C)c(O)c1"
Result :: 0.41

Query :: Answer with the recorded Emax of C=C(C)[C@@H]1CCC(C)=C[C@H]1c1c(O)cc(CCCCC)cc1O [CBD, cannabidiol, reference compound] only.
Result :: 1

====

# Emax listing for each entry below
TESTED_ON: hCB1R (Homo sapiens)
Construct: expressed in transfected cells; membranes
METHOD_DESCRIPTION: cell-based
Type: cell-based
APPLIED_CONDITIONS: CHO; read-out: hCB1R Emax, inhibition of FSK-stimulated cAMP accumulation
Unit % implied. Number only.

CCCCCc1cc2c(c(O)c1C(=O)O)[C@@H]1C=C(C)CC[C@H]1C(C)(C)O2 [∆^9-THCa, ∆^9-tetrahydrocannabinolic acid]: 35

Query :: Report Emax under test system hCB1R (Homo sapiens) for CCCc1cc(O)c2c(c1)OC(C)(C)[C@@H]1CCC(C)=C[C@@H]21 [THCV, ∆^9-tetrahydrocannabivarin] .
Result :: 59

Query :: Answer briefly: Emax recorded on hCB1R (Homo sapiens) for CCCCCc1cc(O)c2c(c1)OC(C)(CCC=C(C)C)C=C2 (stereo not drawn) [CBC, cannabichromene]
Result :: 68

Query :: State Emax (hCB1R (Homo sapiens)) of C=C(C)[C@@H]1CCC(C)=C[C@H]1c1c(O)cc(CCC)cc1O [CBDV, cannabidivarin] .
Result :: 68

Query :: Tell me Emax of C=C(C)[C@@H]1CCC(C)=C[C@H]1c1c(O)cc(CCCCC)c(C(=O)O)c1O [CBDa, cannabidiolic acid] when tested on hCB1R (Homo sapiens).
Result :: 22

Query :: Please respond with reported Emax (system hCB1R (Homo sapiens)) for CCCCCc1cc(O)c(C/C=C(\C)CCC=C(C)C)c(O)c1 [CBG, cannabigerol] .
Result :: 68
